The values you see were collected from patent US20060193821.

- TGT: IL-23 (human, p19/p40 heterodimer) (Homo sapiens, UniProt Q9NPF7;P29460 SEQ:20-189,SEQ:23-328)
- Sequence (Q9NPF7 20-189, chain 1 of 2): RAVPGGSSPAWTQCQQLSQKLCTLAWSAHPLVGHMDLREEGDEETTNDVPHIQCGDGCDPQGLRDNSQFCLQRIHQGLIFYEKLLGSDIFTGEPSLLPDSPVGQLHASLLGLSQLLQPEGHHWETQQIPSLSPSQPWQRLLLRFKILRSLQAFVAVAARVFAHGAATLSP
- Sequence (P29460 23-328, chain 2 of 2): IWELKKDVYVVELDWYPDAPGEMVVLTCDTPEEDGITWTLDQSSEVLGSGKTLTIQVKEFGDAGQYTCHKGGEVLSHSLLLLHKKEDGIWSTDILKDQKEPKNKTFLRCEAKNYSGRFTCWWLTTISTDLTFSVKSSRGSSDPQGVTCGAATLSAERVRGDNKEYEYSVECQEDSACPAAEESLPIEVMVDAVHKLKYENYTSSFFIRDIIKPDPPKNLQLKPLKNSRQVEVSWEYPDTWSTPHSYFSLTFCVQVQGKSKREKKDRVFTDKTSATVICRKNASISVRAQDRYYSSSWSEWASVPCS
- ASSAY_NAME: filter; dot blot; DPBS with Ca and Mg, 0.1 mg/mL BSA, 30 min RT
- SETTINGS: tags: R&D Systems, carrier free; label: 5'-32P
pKd values by entry
The scale used: pKd is minus the common logarithm of the concentration in molar units.

## Input For the binder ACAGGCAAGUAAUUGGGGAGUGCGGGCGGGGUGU (mixed, dAmCdAdGdGmCdAdAdGmUdAdAmUmUdGmGmG-s-dG-s-dA-s-dGmU-s-dGmCmGmGdGmCdGdGmGmGmUdGmU-3T (d deoxy, m 2'-OMe, s PS, 3T idT) [PS at 17-18, 18-19, 19-20, 21-22; 2'-OMe at 2,6,10,13,14,16,17,21,23,24,25,27,30,31,32,34; 2'-deoxy at other nt 1-33; 3'-inverted dT at 35]) [ARC1623] , what pKd is on record?
## Output 9.70

## Input For the binder GGCAAGUAAUUGGGGAGUGCGGGCGGGG (mixed, dRmY; 2'-OMe at two As and one G as printed in Table 29; 3'-idT) [ARC1469] , what pKd is on record?
## Output 7.30

## Input For the binder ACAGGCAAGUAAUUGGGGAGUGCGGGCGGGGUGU (mixed, dAmCdAdGdGmCdAdAdGmUdAdAmUmUdGmGmGdGdAdGmUdGmCmGmG-s-dGmC-s-dG-s-dGmGmGmUdGmU-3T (d deoxy, m 2'-OMe, s PS, 3T idT) [PS at 25-26, 27-28, 28-29; 2'-OMe at 2,6,10,13,14,16,17,21,23,24,25,27,30,31,32,34; 2'-deoxy at other nt 1-33; 3'-inverted dT at 35]) [ARC1624] , what pKd is on record?
## Output 9.40

Shifting focus to the binder that follows.
## Input For the binder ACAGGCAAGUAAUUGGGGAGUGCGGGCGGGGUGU (mixed, dRmY with 2'-OMe at G16, G17, G23, G24, G29, G30; 3'-idT) [ARC1544] , what pKd is on record?
## Output 9.05
